Please respond with reported EC50 for every item in the list.
# ASSAY_SYSTEM: Sin Nombre virus (SNV) glycoproteins Gn and Gc displayed on the surface of Expi293F cells transfected with … (Sin Nombre virus)
# ASSAY_NOTES: flow
Entry rule: numbers only, all in mg/L.

Query: Fill blank: measured EC50 of the binder ANDV-12 (antibody, V domains shown) VH: EVQLVESGGGLVQPGGSLRLSCAASGFAFSSYWMTWVRQAPGKGLEFVANIKYDASEKYYVDSVKGRFTISRDNGRNSFYLQMNSLRAEDTAVYYCAVPGPGYSFAYDYWGQGTQVTVSS VL: DIQMTQSPSSLSASVGDRITITCRASQSVGTYLNWYQQKPGKAPKLLIYEASSLQSGVPSRFSGSGSGTDFTLTISRLQPEDFATYSCQQSDIPPWTFGQGTKVEIK is ____.
Result: 0.016

Query: Fill blank: measured EC50 of the binder ANDV-44 (antibody, V domains shown) VH: QVQLVQSGAEVRKPGASVKVSCKASGYTFTSNGVSWVRQAPGQGLEWMGWIAGYDGYTNYTQKFQGRVTMTTDTSTTTVYMELRSLRFDDTAVYYCARDEGLHNWKFNAMDVWGQGTTVIVSS VL: EIVLTQSPGTLSLSPGERATLSCRASQSVSSSYLAWYQQKPGQAPRLLMSETSRRATGIPDRFSGSVSGTDFILTINRVDPEDFAVYYCQQYSSPPWTFGQGTKVEIK is ____.
Result: 1.09

Query: Fill blank: measured EC50 of the binder ANDV-2 (antibody, V domains shown) VH: QVTLKESGPALVKPTQTLTLTCTFSGFSLSTSGMRVSWIRQPPGKALEWLARIDWDDDKFYSTSLKTRLTISKDTSKNQVVLIMTNMDPVDTATYYCARMMVGEGTFDYWGQGTLVTVSS VL: DIQMTQFPSTLSASVGDRVTITCRASQDISSLLAWYQQKPGKAPKLLIYTASNLEGGVPSRFSGSGSGTEFTLTISSLQPDDFATYYCQQYIRYWTFGQGTKVEIK is ____.
Result: 0.011

Query: Fill blank: measured EC50 of the binder ANDV-59 (antibody, V domains shown) VH: QVVLQESGPGLVKPSETLSLTCTVSGGSINNYYWSWIRQPPGKGLEWIGWLYYSGITTFNPSLKSRVTISIDTSKNQVSLNLRSVTAADTAVYYCARVQGSDSSGYYHLKSDWFDPWGQGIPVTVSS VL: QSVLTQPPSVSAAPGQTVTISCSGSSSNIRHNFVSWYQQLPGTAPKLVIYENNKRPSGIPDRFSGSKSGTSATLGITGLQTGDEADYYCGTWDSSLSAPHWVFGGGTRLTVL is ____.
Result: 0.0093
